Below is a list of entries, each paired with its recorded GI50 value.
# Test system: M14
# experiment notes: Anticancer activity against human M14 cells after 48 hrs
# Type: functional
# experimental parameters: M14, 48 h
Give the value, in units of µM, as a plain number.

See these solved cases before continuing.
Cc1cc(O)c(C2=NN(c3ccc(S(N)(=O)=O)cc3)C(/C=C/c3ccccc3)C2)cc1Cl (centres undefined) ... 6.16
Cc1cc(O)c(C2=NN(c3ccc(S(N)(=O)=O)cc3)C(c3ccccc3Cl)C2)cc1Cl (centres undefined) ... 1.85
Cc1cc(O)c(C2=NN(c3ccc(S(N)(=O)=O)cc3)C(c3ccccc3O)C2)cc1Cl (centres undefined) ... 1.76

// GI50 lookup, key: COc1ccc(C2CC(c3cc(Cl)c(C)cc3O)=NN2c2ccc(S(N)(=O)=O)cc2)cc1OC (centres undefined)
2.61

====

molecules and their reported LC50
# Tested on: MCF7
# experiment notes: Anticancer activity against human MCF7 cells after 48 hrs
# Assay type: functional
# experimental parameters: MCF7, 48 h
# number only, unit µM dropped from output

Recorded LC50 of Cc1cc(O)c(C2=NN(c3ccc(S(N)(=O)=O)cc3)C(c3ccccc3O)C2)cc1Cl (centres undefined) , please.
49.5

// returns reported LC50 for input Cc1cc(O)c(C2=NN(c3ccc(S(N)(=O)=O)cc3)C(c3ccccc3Cl)C2)cc1Cl (centres undefined)
6.35

Return reported LC50; argument: Cc1cc(O)c(C2=NN(c3ccc(S(N)(=O)=O)cc3)C(/C=C/c3ccccc3)C2)cc1Cl (centres undefined)
40.1

====

This listing pairs molecules with measured TGI.
# System: MDA-MB-468
# experiment notes: Anticancer activity against human MDA-MB-468 cells after 48 hrs
# Assay type: functional
# experimental parameters: MDA-MB-468, 48 h
Numbers only; they are read as µM.

COc1ccc(C2CC(c3cc(Cl)c(C)cc3O)=NN2c2ccc(S(N)(=O)=O)cc2)cc1OC (centres undefined) ... 9.51
Cc1cc(O)c(C2=NN(c3ccc(S(N)(=O)=O)cc3)C(c3ccccc3O)C2)cc1Cl (centres undefined) ... 7.92
Cc1cc(O)c(C2=NN(c3ccc(S(N)(=O)=O)cc3)C(c3ccccc3Cl)C2)cc1Cl (centres undefined) ... 4.74

// switching to the query molecule
Would you mind telling me what TGI value was observed for Cc1cc(O)c(C2=NN(c3ccc(S(N)(=O)=O)cc3)C(/C=C/c3ccccc3)C2)cc1Cl (centres undefined) ?
13.8

====

# Tested on: NCI-H322M
# experiment notes: Anticancer activity against human NCI-H322M cells after 48 hrs
# Format: functional
parameter: TGI (µM)
Write the answer as a number in µM, unit excluded.

# lookup: TGI of COc1ccc(C2CC(c3cc(Cl)c(C)cc3O)=NN2c2ccc(S(N)(=O)=O)cc2)cc1OC (centres undefined)
39.7

====

LC50 (net 50% loss of initial cells) overview
# System: IGROV-1
# experiment notes: Anticancer activity against human IGROV1 cells after 48 hrs
# Assay type: functional
# experimental parameters: IGROV-1, 48 h
State the answer as a number, implicitly in µM.

Cc1cc(O)c(C2=NN(c3ccc(S(N)(=O)=O)cc3)C(/C=C/c3ccccc3)C2)cc1Cl (centres undefined) ... 68.7

Endpoint output: LC50 (net 50% loss of initial cells) of Cc1cc(O)c(C2=NN(c3ccc(S(N)(=O)=O)cc3)C(c3ccccc3Cl)C2)cc1Cl (centres undefined) . Value?
47.2

For the molecule shown here, Cc1cc(O)c(C2=NN(c3ccc(S(N)(=O)=O)cc3)C(c3ccccc3O)C2)cc1Cl (centres undefined) , give the reported LC50 (net 50% loss of initial cells).
37.4

I am curious: what LC50 (net 50% loss of initial cells) value has been reported for COc1ccc(C2CC(c3cc(Cl)c(C)cc3O)=NN2c2ccc(S(N)(=O)=O)cc2)cc1OC (centres undefined) ?
28.8

====

# System: SN12C
# experiment notes: Anticancer activity against human SN12C cells after 48 hrs
# Type: functional
// reported LC50 for each item listed
Please give a number only; it is taken to be in µM.

Cc1cc(O)c(C2=NN(c3ccc(S(N)(=O)=O)cc3)C(c3ccccc3O)C2)cc1Cl (centres undefined) ... 43.1
Cc1cc(O)c(C2=NN(c3ccc(S(N)(=O)=O)cc3)C(c3ccccc3Cl)C2)cc1Cl (centres undefined) ... 29.4

May I ask what LC50 has been recorded for Cc1cc(O)c(C2=NN(c3ccc(S(N)(=O)=O)cc3)C(/C=C/c3ccccc3)C2)cc1Cl (centres undefined) ?
59.4

====

Here, each record is paired with measured LC50 (concentration for net 50% loss of initial cells) data.
# Test system: RPMI-8226
# experiment notes: Anticancer activity against human RPMI8226 cells after 48 hrs
# Format: functional
# experimental parameters: RPMI-8226, 48 h

The cases that follow already have their LC50 (concentration for net 50% loss of initial cells) on record.
COc1ccc(C2CC(c3cc(Cl)c(C)cc3O)=NN2c2ccc(S(N)(=O)=O)cc2)cc1OC (centres undefined) ... > 100 µM
Cc1cc(O)c(C2=NN(c3ccc(S(N)(=O)=O)cc3)C(/C=C/c3ccccc3)C2)cc1Cl (centres undefined) ... 0.575 µM

Find LC50 (concentration for net 50% loss of initial cells) (RPMI-8226) for the entry Cc1cc(O)c(C2=NN(c3ccc(S(N)(=O)=O)cc3)C(c3ccccc3Cl)C2)cc1Cl (centres undefined)
> 100 µM

I'm curious: which LC50 (concentration for net 50% loss of initial cells) was measured for Cc1cc(O)c(C2=NN(c3ccc(S(N)(=O)=O)cc3)C(c3ccccc3O)C2)cc1Cl (centres undefined) tested on RPMI-8226?
> 100 µM

====

# Tested on: SK-OV-3
# experiment notes: Anticancer activity against human SKOV3 cells after 48 hrs
# Format: functional
# experimental parameters: SK-OV-3, 48 h
Listed here: items and their measured GI50.
# do not omit the unit; it follows the number

Below are worked cases with known answers.
Cc1cc(O)c(C2=NN(c3ccc(S(N)(=O)=O)cc3)C(/C=C/c3ccccc3)C2)cc1Cl (centres undefined) ... 5.52 µM
COc1ccc(C2CC(c3cc(Cl)c(C)cc3O)=NN2c2ccc(S(N)(=O)=O)cc2)cc1OC (centres undefined) ... 4.51 µM
Cc1cc(O)c(C2=NN(c3ccc(S(N)(=O)=O)cc3)C(c3ccccc3O)C2)cc1Cl (centres undefined) ... 4.41 µM

Which GI50 is listed for Cc1cc(O)c(C2=NN(c3ccc(S(N)(=O)=O)cc3)C(c3ccccc3Cl)C2)cc1Cl (centres undefined) ?
3.63 µM

====

# Tested on: NCI-H226
# experiment notes: Anticancer activity against human NCI-H226 cells after 48 hrs
# Format: functional
# experimental parameters: NCI-H226, 48 h, read-out: LC50 (the source's name)
Property: CC50; scope: individual molecules
Enter your answer as a number in µM; do not include the unit.

Past entries and their recorded results:
Cc1cc(O)c(C2=NN(c3ccc(S(N)(=O)=O)cc3)C(c3ccccc3O)C2)cc1Cl (centres undefined) ... 86.5
Cc1cc(O)c(C2=NN(c3ccc(S(N)(=O)=O)cc3)C(/C=C/c3ccccc3)C2)cc1Cl (centres undefined) ... 51.8

Query (molecule): COc1ccc(C2CC(c3cc(Cl)c(C)cc3O)=NN2c2ccc(S(N)(=O)=O)cc2)cc1OC (centres undefined) ; field requested: CC50
86.4

====

# Tested on: EKVX
# experiment notes: Anticancer activity against human EKVX cells after 48 hrs
# Format: functional
Listed molecules paired with reported GI50

The cases that follow already have their GI50 on record.
COc1ccc(C2CC(c3cc(Cl)c(C)cc3O)=NN2c2ccc(S(N)(=O)=O)cc2)cc1OC (centres undefined) ... 4.15 µM
Cc1cc(O)c(C2=NN(c3ccc(S(N)(=O)=O)cc3)C(c3ccccc3O)C2)cc1Cl (centres undefined) ... 1.99 µM
Cc1cc(O)c(C2=NN(c3ccc(S(N)(=O)=O)cc3)C(c3ccccc3Cl)C2)cc1Cl (centres undefined) ... 1.95 µM

Next molecule, please.
GI50 lookup needed for Cc1cc(O)c(C2=NN(c3ccc(S(N)(=O)=O)cc3)C(/C=C/c3ccccc3)C2)cc1Cl (centres undefined) , thanks.
14.2 µM

====

// TGI lookup, one value per entry
# Test system: IGROV-1
# experiment notes: Anticancer activity against human IGROV1 cells after 48 hrs
# Type: functional
# experimental parameters: IGROV-1, 48 h
Please give a number only; it is taken to be in µM.

Record excerpt, results attached:
Cc1cc(O)c(C2=NN(c3ccc(S(N)(=O)=O)cc3)C(c3ccccc3Cl)C2)cc1Cl (centres undefined) ... 14
COc1ccc(C2CC(c3cc(Cl)c(C)cc3O)=NN2c2ccc(S(N)(=O)=O)cc2)cc1OC (centres undefined) ... 5.46
Cc1cc(O)c(C2=NN(c3ccc(S(N)(=O)=O)cc3)C(c3ccccc3O)C2)cc1Cl (centres undefined) ... 11.2

TGI for Cc1cc(O)c(C2=NN(c3ccc(S(N)(=O)=O)cc3)C(/C=C/c3ccccc3)C2)cc1Cl (centres undefined) ?
19.8
